Entries and their measured ΔTm at 10 µM follow.
Biological target: MAP2K1A (Homo sapiens)
Construct: purchased in-house DSF kinase panel (SGC-style construct names; the trailing letter is the construct ID)
Sequence (Q02750 68-361): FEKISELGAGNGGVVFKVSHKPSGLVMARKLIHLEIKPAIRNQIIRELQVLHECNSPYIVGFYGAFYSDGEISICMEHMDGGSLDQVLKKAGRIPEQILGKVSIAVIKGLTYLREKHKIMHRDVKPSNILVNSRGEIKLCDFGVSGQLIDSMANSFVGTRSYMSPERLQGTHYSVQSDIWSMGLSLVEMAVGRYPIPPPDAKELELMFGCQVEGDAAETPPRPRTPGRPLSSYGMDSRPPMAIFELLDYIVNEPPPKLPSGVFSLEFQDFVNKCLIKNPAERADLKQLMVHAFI
Experiment: DSF Tm panel
Format: binding
Details: 10 μM compound

{"Given Smiles": "COc1ccc(CNC(=O)Nc2ccc3cc2OCCOCCNc2ccn4ncc-3c4n2)cc1", "ΔTm at 10 µM / °C": 0.6}
{"Given Smiles": "O=C(NCc1ccccc1C(F)(F)F)Nc1ccc2cc1OCCOCCNc1ccn3ncc-2c3n1", "ΔTm at 10 µM / °C": 0.7}
{"Given Smiles": "COc1cccc(CNC(=O)Nc2ccc3cc2OCCOCCNc2ccn4ncc-3c4n2)c1", "ΔTm at 10 µM / °C": 0.6}
{"Given Smiles": "COc1ccccc1CNC(=O)Nc1ccc2cc1OCCOCCNc1ccn3ncc-2c3n1", "ΔTm at 10 µM / °C": 0.6}
{"Given Smiles": "O=C(NCc1ccccc1Cl)Nc1ccc2cc1OCCOCCNc1ccn3ncc-2c3n1", "ΔTm at 10 µM / °C": -0.2}
{"Given Smiles": "COc1cc(CNC(=O)Nc2ccc3cc2OCCOCCNc2ccn4ncc-3c4n2)ccc1F", "ΔTm at 10 µM / °C": 0.7}
